# assaySystem: human M2 receptor (Homo sapiens, UniProt P08172)
# Sequence (P08172 1-466): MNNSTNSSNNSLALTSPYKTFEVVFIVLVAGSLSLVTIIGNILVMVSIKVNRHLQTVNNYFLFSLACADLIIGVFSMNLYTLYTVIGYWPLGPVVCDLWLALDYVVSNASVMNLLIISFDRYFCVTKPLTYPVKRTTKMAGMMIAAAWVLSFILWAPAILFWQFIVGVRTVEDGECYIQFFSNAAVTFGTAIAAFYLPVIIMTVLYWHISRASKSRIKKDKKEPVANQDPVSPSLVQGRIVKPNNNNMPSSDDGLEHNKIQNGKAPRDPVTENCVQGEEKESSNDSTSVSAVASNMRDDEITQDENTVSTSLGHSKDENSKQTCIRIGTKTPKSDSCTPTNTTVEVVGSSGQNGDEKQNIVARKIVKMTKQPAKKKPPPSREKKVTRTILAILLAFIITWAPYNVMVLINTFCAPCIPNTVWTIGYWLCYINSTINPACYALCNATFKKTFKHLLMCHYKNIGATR
# experimentalProtocol: Functional M2-GIRK1/4 activation test: allosteric potency (EC50) and efficiency
# experimentalConditions: Receptor activity EC50, CHO-DUKX-M2-GIRK cells; acetylcholine at EC20; in some cases mean of two or more determinations
pEC50: −log10 of the molar value.
quantityName: pEC50

[[record]]
molecule = "CC1C(=O)N(c2ccc3c(=O)c(C(=O)N[C@@H](C)C(F)(F)F)cn(-c4ncc(F)cc4F)c3n2)CC1O (mixture of isomers)"
quantityname = "pEC50"
recordednumber = 6.28

[[record]]
molecule = "CC1(O)CCN(c2ccc3c(=O)c(C(=O)N[C@H](C4CC4)C(F)(F)F)cn(-c4ncc(F)cc4Cl)c3n2)C1 (mixture of isomers)"
quantityname = "pEC50"
recordednumber = 6.26

[[record]]
molecule = "O=C(NC(C(F)(F)F)C(F)(F)F)c1cn(-c2ncc(F)cc2F)c2nc(N3CC4CC4(O)C3)ccc2c1=O (single isomer, unassigned) [Example 59]"
quantityname = "pEC50"
recordednumber = 7.64


a. CC(C)C[C@H](NC(=O)c1cn(-c2ncc(F)cc2F)c2nc(N3C[C@@H](O)[C@H](O)C3)ccc2c1=O)C(F)(F)F
b. O=C(NC1(C(F)(F)F)CCC1)c1cn(-c2ncc(F)cc2F)c2nc(N3C[C@@H](O)CC3=O)ccc2c1=O
c. CC[C@H](NC(=O)c1cn(-c2ncc(F)cc2F)c2nc(N3C(=O)C(C)(C)C(O)C34CC4)ccc2c1=O)C(F)(F)F (stereo partly drawn)
# desc sort on pEC50 across 3 molecules Give the labels in the order requested. a, b, c
(a: 7.55, b: 6.54, c: 6.19)

====

# assaySystem: human M2 receptor (Homo sapiens, UniProt P08172)
# Sequence (P08172 1-466): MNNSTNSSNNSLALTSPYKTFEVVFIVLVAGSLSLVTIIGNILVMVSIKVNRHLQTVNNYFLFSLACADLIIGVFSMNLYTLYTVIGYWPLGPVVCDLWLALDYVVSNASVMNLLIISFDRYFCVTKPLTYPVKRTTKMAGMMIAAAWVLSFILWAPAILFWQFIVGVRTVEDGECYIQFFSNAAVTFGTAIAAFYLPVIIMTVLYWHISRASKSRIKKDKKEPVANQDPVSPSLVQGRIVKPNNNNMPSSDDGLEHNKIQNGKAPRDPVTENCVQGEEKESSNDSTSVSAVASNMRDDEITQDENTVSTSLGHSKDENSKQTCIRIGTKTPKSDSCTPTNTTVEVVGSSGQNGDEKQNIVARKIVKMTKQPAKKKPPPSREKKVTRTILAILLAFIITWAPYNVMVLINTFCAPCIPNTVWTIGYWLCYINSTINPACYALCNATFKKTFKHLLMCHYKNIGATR
# experimentalProtocol: Functional M2-GIRK1/4 activation test: positive cooperativity (alpha factor)
# experimentalConditions: shift of acetylcholine dose-response curve (Allosteric EC50 shift); CHO-DUKX-M2-GIRK cells
quantityName: Cooperativity (alpha factor)

Here is how some molecules turned out for Cooperativity (alpha factor).
[[record]]
molecule = "O=C(N[C@@H](C1CC1)C(F)(F)F)c1cn(-c2ncc(F)cc2F)c2nc(N3C[C@@H](O)CC3=O)ccc2c1=O [Example 14]"
quantityname = "Cooperativity (alpha factor)"
recordednumber = 50

[[record]]
molecule = "CC(NC(=O)c1cn(-c2ncc(F)cc2F)c2nc(N3C[C@@H](O)[C@H](O)C3)ccc2c1=O)C(F)(F)C(F)(F)F (single isomer, unassigned) [Example 90]"
quantityname = "Cooperativity (alpha factor)"
recordednumber = 41

[[record]]
molecule = "CCC(NC(=O)c1cn(-c2ncc(F)cc2F)c2nc(N3C[C@@H](O)[C@H](O)C3)ccc2c1=O)C(F)(F)C(F)(F)F (single isomer, unassigned) [Example 97]"
quantityname = "Cooperativity (alpha factor)"
recordednumber = 53

[[record]]
molecule = "O=C(NC(C(F)(F)F)C(F)(F)F)c1cn(-c2ncc(F)cc2F)c2nc(N3C[C@@H](O)CC3=O)ccc2c1=O [Example 15]"
quantityname = "Cooperativity (alpha factor)"
recordednumber = 63

[[record]]
molecule = "O=C(NC(c1ccccc1Cl)C(F)(F)F)c1cn(-c2ncc(F)cc2F)c2nc(N3C[C@@H](O)CC3=O)ccc2c1=O (single isomer, unassigned) [Example 5]"
quantityname = "Cooperativity (alpha factor)"
recordednumber = 63

[[record]]
molecule = "CCC(NC(=O)c1cn(-c2ncc(F)cc2F)c2nc(N3CCNC3=O)ccc2c1=O)C(F)(F)C(F)(F)F (single isomer, unassigned) [Example 165]"
quantityname = "Cooperativity (alpha factor)"
recordednumber = 30

[[record]]
molecule = "CC(C)(C)[C@@H](NC(=O)c1cn(-c2ncc(F)cc2F)c2nc(N3C[C@@H](O)CC3=O)ccc2c1=O)C(F)(F)F [Example 73]"
quantityname = "Cooperativity (alpha factor)"
recordednumber = 68

[[record]]
molecule = "O=C(NC(c1ccccc1Cl)C(F)(F)F)c1cn(-c2ncc(F)cc2F)c2nc(N3C[C@@H](O)CC3=O)ccc2c1=O (mixture of isomers) [Example 4]"
quantityname = "Cooperativity (alpha factor)"
recordednumber = 63

[[record]]
molecule = "CC(C)(C)[C@H](NC(=O)c1cn(-c2ncc(F)cc2F)c2nc(N3C[C@@H](O)CC3=O)ccc2c1=O)C(F)(F)F [Example 98]"
quantityname = "Cooperativity (alpha factor)"
recordednumber = 56

[[record]]
molecule = "O=C(Nc1c(Cl)cccc1Cl)c1cn(-c2ncc(F)cc2F)c2nc(N3C[C@@H](O)CC3=O)ccc2c1=O [Example 16]"
quantityname = "Cooperativity (alpha factor)"
recordednumber = 40


1. O=C(Nc1c(Cl)cccc1Cl)c1cn(-c2ncc(F)cc2F)c2nc(N3C[C@@H](O)[C@H](O)C3)ccc2c1=O [Example 67]
2. CCC(COC(F)(F)F)NC(=O)c1cn(-c2ncc(F)cc2F)c2nc(N3C[C@@H](O)CC3=O)ccc2c1=O (mixture of isomers) [Example 17]
Which record shows the lower Cooperativity (alpha factor): the first, 1 , or the second, 2 ? When you have decided, please share the label of that item. 2

a. CC1CC(=O)N(c2ccc3c(=O)c(C(=O)N[C@H](C4CC4)C(F)(F)F)cn(-c4ncc(F)cc4F)c3n2)C1 (mixture of isomers) [Example 27]
b. O=C(NC(C(F)(F)F)C(F)(F)F)c1cn(-c2ncc(F)cc2F)c2nc(N3C[C@@H](O)[C@@H](O)C3)ccc2c1=O [Example 55]
Between a and b , whose recorded Cooperativity (alpha factor) is greater? When you have decided, please share the label of that item. b
(b: 79, a: 10)

====

# assaySystem: human M2 receptor (Homo sapiens, UniProt P08172)
# experimentalProtocol: Functional M2-GIRK1/4 activation test: allosteric potency (EC50) and efficiency
# experimentalConditions: Receptor activity EC50, CHO-DUKX-M2-GIRK cells; acetylcholine at EC20; in some cases mean of two or more determinations
pEC50: −log10 of the molar value.
quantityName: pEC50

[[record]]
molecule = "CC1C(=O)N(c2ccc3c(=O)c(C(=O)N[C@@H](C4CC4)C(F)(F)F)cn(-c4ncc(F)cc4F)c3n2)CC1O (single isomer, unassigned) [Example 107]"
recordednumber = 7.01

[[record]]
molecule = "CC(NC(=O)c1cn(-c2ncc(F)cc2F)c2nc(N3CCNC3=O)ccc2c1=O)C(F)(F)C(F)(F)F (single isomer, unassigned) [Example 163]"
recordednumber = 6.92

[[record]]
molecule = "O=C(NC(C1CC1)C(F)(F)F)c1cn(-c2ncc(F)cc2F)c2nc(N3CC[C@H](O)C3=O)ccc2c1=O (stereo partly shown)"
recordednumber = 6.68


P. CCC(NC(=O)c1cn(-c2ncc(F)cc2F)c2nc(N3C[C@@H](O)[C@H](O)C3)ccc2c1=O)C(F)(F)C(F)(F)F (single isomer, unassigned) [Example 96]
Q. O=C(NC(c1c(F)cccc1F)C(F)(F)F)c1cn(-c2ncc(F)cc2F)c2nc(N3C[C@@H](O)CC3=O)ccc2c1=O (stereo partly shown)
Between P and Q , whose recorded pEC50 is greater? When you have decided, please share the label of that item. Q
(Q: 7.70, P: 7.17)

1. O=C(Nc1c(Cl)cccc1Cl)c1cn(-c2ncc(F)cc2F)c2nc(N3C[C@H](O)[C@@H](O)C3)ccc2c1=O
2. O=C(N[C@H](C1CC1)C(F)(F)F)c1cn(-c2ncccc2F)c2nc(N3CC4C[C@@]4(O)C3)ccc2c1=O (single isomer, unassigned) [Example 136]
Which record shows the lower pEC50: the first, 1 , or the second, 2 ? When you have decided, please share the label of that item. 1

I. O=C(N[C@@H](C1CC1)C(F)(F)F)c1cn(-c2ncc(F)cc2F)c2nc(N3C[C@@H](O)[C@@H](O)C3)ccc2c1=O
II. O=C(NC(c1ccc(F)cc1)C(F)(F)F)c1cn(-c2ncc(F)cc2F)c2nc(N3C[C@@H](O)CC3=O)ccc2c1=O (mixture of isomers) [Example 11]
III. O=C(N[C@H](C1CC1)C(F)(F)F)c1cn(-c2ncc(F)cc2Cl)c2nc(N3C[C@@H](O)[C@@H](O)C3)ccc2c1=O
IV. O=C(NC(c1ccccc1Cl)C(F)(F)F)c1cn(-c2ncc(F)cc2F)c2nc(N3C[C@@H](O)CC3=O)ccc2c1=O (single isomer, unassigned) [Example 6]
V. CC(C)(NC(=O)c1cn(-c2ncc(F)cc2F)c2nc(N3CCCC[C@@H]3CO)ccc2c1=O)C(F)(F)C(F)(F)F
# desc sort on pEC50 across 5 molecules Give the labels in the order requested. IV, II, V, I, III

Each recorded value in this set is attributed to patent US10519154B2.
